B1: GA-binding protein alpha chain, residues 172 to 250; numbered along this chain, Q06546 (parent)
chain: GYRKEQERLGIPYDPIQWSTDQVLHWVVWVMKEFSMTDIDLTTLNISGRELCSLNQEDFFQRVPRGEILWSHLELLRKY

Variants of: B1
TEST: abundance fitness (aPCA) (normalised: wild type 0, dead -1); higher = more abundant; growth selection in yeast, the domain comes from the species named
MEASUREMENT_CONTEXT: Homo sapiens
PROPERTY_MEASURED: abundance fitness
The answer should be a number; do not append a unit.

Use the examples below as a reference point.
MUTATION_LIST	abundance fitness
Y13V	-0.109
K4H	-0.003
S35M	-0.14
R77S	-0.311
P64S	-0.219
V63D	-0.667
D14H	-0.147
V27E	-0.913

Exercise: What abundance fitness value was documented for this variant, E33N ?
Key: -0.202

Exercise: What abundance fitness value was documented for this variant, L69F ?
Key: -0.027

Exercise: What abundance fitness value was documented for this variant, E57Q ?
Key: -0.046

Exercise: What abundance fitness value was documented for this variant, H72L ?
Key: -0.751
